System: SR leukemia
test: NCI-60 one-dose screen, 48 h
measurement.setup: 10 µM unless noted
Procedure: Growth inhibition of the SR human tumor cell line is measured as a screen for anti-cancer activity. Cells are grown in 96 well plates and exposed to the test compound for 48 hours. Compounds are tested at a single concentration, which is 10^-5 M for most compounds. The reported endpoint is percent growth (GI% or GIPRCNT), where numbers from 0 - 100% represent growth inhibition, and numbers from -100% - 0 represent cell death. For example, a value of 40 represents 60% growth inhibition. […]
The panel holds about 83,000 compounds, 20% with a hit somewhere; the sample as a whole holds those more often. Calls of active or inactive are those of the source. The calls were made as follows: active = growth percent below 10; inactive = the rest.
Pick one: true (active), false (inactive)

// below: answered compounds
compound	group.label
COc1cc(NC(C)CCCN2C(=O)c3ccccc3C2=O)c2nc(C)ccc2c1OC (stereo not given)	false
CC1CCC(C(C)C)C(NN)C1 (stereo not given)	false
COc1ccc(Cl)cc1NC(=O)c1cc2c([nH]1)-c1nc(NC(=O)C(C)(C)C)sc1CC2	false
O=c1c2ccccc2[nH]n1Cc1ccc2c(c1)OCO2	false
Cc1cc[n+](CCCC[n+]2ccc(C)cc2)cc1	false
S=c1ssnc1-c1ccccn1	true

Request: Given `COc1ccc(-c2nnc(SCC(=O)Nc3ccc(C(=O)/C=C/c4ccc(OC)c(OC)c4)cc3)o2)cc1` , state the outcome it received in this test.
Response: false

Request: What call does the record list for `c1ccc(CNCCN(CCNCc2ccccn2)Cc2ccc3ccccc3c2)nc1` ?
Response: true

Request: Per the assay record, what outcome was assigned to `O=C(NCCNc1nccc(-c2c(-c3cccc(O)c3)nc3sccn23)n1)c1ccccc1O` ?
Response: false

Request: Entry `O=C(NCCNc1nccc(-c2c(-c3cccc(O)c3)nc3sccn23)n1)c1ccc(N2CCOCC2)c(C(F)(F)F)c1` : call = ?
Response: false
